The reported measurements were obtained from PubChem BioAssay.

assay.protocol: drug combination growth inhibition, ovarian cancer – cell-based, oncology-focused library, rucaparib conditional, profiling panel (AID 1508598)
settings: patient-derived ovarian cancer cells, CellTiter-Glo viability, 144 h; at 1.25 µM; OCI-C5x cells; with rucaparib 10 µM; stronger effect = lower value; 100% = cells with rucaparib alone
Hi there, I'd appreciate the recorded viability for every entry that follows.
The response must be a number in % with no trailing unit.

-- ask Item under review: O=C(CCCCCCC(=O)Nc1ccc([C@H]2O[C@@H](CSc3nc(-c4ccccc4)c(-c4ccccc4)o3)C[C@@H](c3ccc(CO)cc3)O2)cc1)NO . Reported viability?
-- reply 110

-- ask Returns the measured viability for the input compound. Input: COc1ccc(-c2ccc3c(N4CCOC[C@@H]4C)nc(N4CCOC[C@@H]4C)nc3n2)cc1CO
-- reply 54.1

-- ask // viability lookup, key: Cn1cncc1[C@@](N)(c1ccc(Cl)cc1)c1ccc2c(c1)c(-c1cccc(Cl)c1)cc(=O)n2C
-- reply 101

-- ask Please report the recorded viability for Cn1cc(-c2ccc3c(c2)CCN3C(=O)Cc2cccc(C(F)(F)F)c2)c2c(N)ncnc21 .
-- reply 123

-- ask Sample CN(NC(=O)CC(=O)NN(C)C(=S)c1ccccc1)C(=S)c1ccccc1 — what was its viability?
-- reply 125

-- ask Please give the measured viability for this compound: Nc1cccc2c1C(=O)N(C1CCC(=O)NC1=O)C2=O (centres undefined)
-- reply 118

-- ask Would you kindly share the measured viability for O=c1cc(N2CCOCC2)oc2c(-c3cccc4c3sc3ccccc34)cccc12 ?
-- reply 101

-- ask Return reported viability; argument: Cc1c(NC(=O)OC[C@@H]2COCCN2)cn2ncnc(Nc3ccc4c(cnn4Cc4cccc(F)c4)c3)c12
-- reply 121

-- ask Which viability is listed for CNc1nc(-c2ccc3c(N)n[nH]c3c2)cc(N2C[C@@H](C(=O)NC3CCCCC3)CC[C@H]2C)n1 ?
-- reply 112

-- ask Endpoint output: viability of Cc1nnc(C(C)C)n1C1CC2CCC(C1)N2CC[C@H](NC(=O)C1CCC(F)(F)CC1)c1ccccc1 (some centres undefined) . Value?
-- reply 118

-- ask Fill in: viability of Cn1cc(-c2ccc3nnc(Sc4ccc5ncccc5c4)n3n2)cn1 is ___
-- reply 131

-- ask Which viability is listed for Cc1cc(Nc2nc(N[C@@H](C)c3ncc(F)cn3)ncc2Cl)n[nH]1 ?
-- reply 78.7

-- ask Given the compound Cc1ccc2nc(NC(=O)CSc3nc4c(c(=O)n3-c3ccccc3)SCC4)sc2c1 , what is its reported viability?
-- reply 117

-- ask Please report the recorded viability for CC1COC2(CCN(c3nc(=O)c4cc(C(F)(F)F)cc([N+](=O)[O-])c4s3)CC2)O1 (centres undefined) .
-- reply 115

-- ask Entry O=C(NC1CCNCC1)c1[nH]ncc1NC(=O)c1c(Cl)cccc1Cl has what viability?
-- reply 10.3

-- ask Which viability reading was recorded for the compound CCC[C@H](Nc1nc(-c2ccc(NC(=O)NCC)c(OC)c2)ncc1C)c1cccnc1 ?
-- reply 38

-- ask Recorded viability for CC1(O)CC(c2nc(-c3ccc4ccc(-c5ccccc5)nc4c3)c3c(N)nccn23)C1 (centres undefined) , please?
-- reply 145

-- ask Record request: viability value, item Cc1cc(N2CCOCC2)cc2[nH]c(-c3c(NC[C@@H](O)c4cccc(Cl)c4)cc[nH]c3=O)nc12
-- reply 133

-- ask What does the data say about its viability? Entry: NC(=O)Nc1cc(-c2cccc(F)c2)sc1C(=O)N[C@H]1CCCNC1
-- reply 33.5

---

assay.protocol: drug combination growth inhibition, ovarian cancer – cell-based, oncology-focused library, rucaparib conditional, profiling panel (AID 1508598)
settings: patient-derived ovarian cancer cells, CellTiter-Glo viability, 144 h; at 1.25 µM; OCI-P5x cells; with rucaparib 20 µM; stronger effect = lower value; 100% = cells with rucaparib alone
Could you please report measured viability for the items listed next?
Field format: number, assumed %, no unit text.

-- ask What viability value was documented for this compound, Cc1cccc(-c2[nH]c(C(C)(C)C)nc2-c2ccc3nccnc3c2)n1 ?
-- reply 121

-- ask Tell me the measured viability of CS(=O)(=O)N1CCc2c(-c3cnc(N)nc3)nc(N3CCOCC3)nc21 , please.
-- reply 66.8

-- ask Which value of viability has been reported for c1ccc2c(CCNc3ccc(Nc4ccncc4)cc3)c[nH]c2c1 in the records?
-- reply 94.3

-- ask What value of measured viability is listed for CC(C)C[C@H](NC(=O)CNC(=O)c1cc(Cl)ccc1Cl)B(O)O ?
-- reply 2.76

-- ask I would be grateful if you could share the reported viability for O=C(/C=C/c1cccc(S(=O)(=O)Nc2ccccc2)c1)NO .
-- reply 17.8

-- ask Name the recorded viability for Nc1ccc(-c2ccc3ncc4ccc(=O)n(-c5cccc(C(F)(F)F)c5)c4c3c2)cn1 .
-- reply 67.9

-- ask viability lookup needed for CCC(CC)CC1(C(=O)Nc2ccccc2SC(=O)C(C)C)CCCCC1 , thanks.
-- reply 107

-- ask # viability lookup, item C[C@@H](Oc1cc(-n2cnc3ccc(CN4CCN(C)CC4)cc32)sc1C(N)=O)c1ccccc1C(F)(F)F
-- reply 62.3

-- ask Would you mind telling me what viability value was observed for COc1ccc(C2=NC(c3ccc(Cl)cc3)C(c3ccc(Cl)cc3)N2C(=O)N2CCNC(=O)C2)c(OC(C)C)c1 (stereo not given) ?
-- reply 91.3

-- ask Fill in the blank: the reported viability of CN(C)Cc1ccc(-c2nc3cccc4c3n2CCNC4=O)cc1 is ____.
-- reply 88.7

---

Record form. Attribute: inhibition. Fill in for each entry.
assay.protocol: growth inhibition, single agent and combos, cell-based, chromothripsis tumors, cisplatin or BGB combos (AID 1671450);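 also: cells exposed to compound for four days; 0% = vehicle DMSO and 100% = cell killing by high DMSO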
settings: HDN33 neuroblastoma cells, at 0.5 µM, stronger effect = higher value
All answers are understood in %, so give the number only.

-- ask What does the data say about its inhibition? Entry: C[C@]12CCCN1CC1=NNC(=O)c3cc(F)cc4[nH]c2c1c34
-- reply 9.23

-- ask // returns reported inhibition for input Nc1ncnc2c1c(-c1cnc3[nH]ccc3c1)nn2C1CCCC1
-- reply 34.8

-- ask // lookup inhibition for c1cc(Nc2cc(C3CC3)[nH]n2)nc(Nc2ccc3nc[nH]c3c2)n1
-- reply 13.6

-- ask Reported inhibition for O=c1cc(N2CCOCC2)oc2c1ccc1ccccc12 : what is it?
-- reply 5.72

---

assay.protocol: viability loss with induced miR-34 in A549 – imaging, A549 dox-inducible miR-34, nuclei and caspase counts, primary screen (AID 1347080)
settings: A549 miR-34 inducible, Hoechst nuclei count, 48 h; measured here: relative caspase fold change +Dox/-Dox
Simple rule here: fold change less than 0.9 is T, otherwise F.

-- ask Strictly below 0.9 in fold change? O=C(O)CCC/C=C\C[C@@H]1[C@@H](CC[C@@H](O)CCc2ccccc2)[C@H](O)C[C@@H]1O
-- reply F

-- ask fold change strictly < 0.9 for this compound? COC(=O)C1=C(C)NC(C)=C(C(=O)OCCCN2CCC(c3ccccc3)(c3ccccc3)CC2)[C@H]1c1cccc([N+](=O)[O-])c1
-- reply F

-- ask # TODO verify fold change < 0.9 strictly for this compound: CCn1c(=O)n(C2=C(CO)CN(CC3CCCCCCC3)CC2)c2ccccc21
-- reply F

-- ask In the record for CC#CCC(C)[C@@H](O)/C=C/[C@@H]1[C@H]2C/C(=C\CCCC(=O)O)C[C@H]2C[C@H]1O (stereo not given in full) , is fold change less than 0.9?
-- reply F

-- ask Given the entry C=CC(=O)Nc1ccc2ncnc(Nc3ccc(OCc4cccc(F)c4)c(Cl)c3)c2c1 , would its reported fold change be below 0.9?
-- reply F

-- ask Answer whether the compound CC(=O)Nc1cccc(-n2c(=O)n(C3CC3)c(=O)c3c(Nc4ccc(I)cc4F)n(C)c(=O)c(C)c32)c1 has fold change strictly less than 0.9
-- reply T

-- ask Does the reported fold change of O=c1cc(CN2CCOCC2)occ1OCCCCCSc1ccnc2cc(C(F)(F)F)ccc12 stay below 0.9?
-- reply T

-- ask Please indicate whether the reported fold change of Cc1c(C(=O)NN2CCOCC2)nn(-c2ccc(Cl)cc2Cl)c1-c1ccc(I)cc1 is strictly below 0.9.
-- reply T

-- ask A record lists c1ccc2oc(C3=NCCN3)cc2c1 . Is its fold change below 0.9?
-- reply F

-- ask Determine whether this compound shows fold change lower than 0.9 (ties excluded): CCCCCCCCCCCCCC(=O)O
-- reply F

-- ask # TODO verify fold change < 0.9 strictly for this compound: CC(C)N1CCN(c2ccc(C(=O)c3c(-c4ccc(O)cc4)sc4cc(O)ccc34)cc2)CC1
-- reply F

-- ask Lab note: confirm whether the reported fold change for this compound is below 0.9, equality not counting. compound: COc1ccc2c(c1)c(CC(=O)SC[C@H](NC(C)=O)C(=O)OCCCCO[N+](=O)[O-])c(C)n2C(=O)c1ccc(Cl)cc1
-- reply T

-- ask Determine whether this compound shows fold change lower than 0.9 (ties excluded): C[C@@H]1CC[C@H]2[C@@H](C)C(O)O[C@@H]3OC4(C)CC[C@@H]1[C@]32OO4 (stereo not given in full)
-- reply T

-- ask fold change strictly < 0.9 for this compound? Cc1nc(NC(=O)N2CCCC2C(N)=O)sc1-c1ccnc(C(C)(C)C(F)(F)F)c1 (stereo not given)
-- reply T

-- ask Take the compound O=C(NCc1ccccc1)c1csc(Nc2ccncn2)n1 and say whether its fold change is less than 0.9.
-- reply F

-- ask Does the reported fold change of CCCCCCCCCCCCCCCC(=O)OC[C@H](COP(=O)([O-])OCC[N+](C)(C)C)OC(=O)CCCCCCCC(=O)O stay below 0.9?
-- reply T

-- ask Please let me know if C[C@@H]1O[C@@]2(CS1)CN1CCC2CC1 (racemic) shows fold change below 0.9.
-- reply F

-- ask Field: below-cutoff. Rule: recorded fold change strictly less than 0.9. Subject: CCC(=O)NC1Cc2ccccc2C(c2ccccc2)C1 (stereo not given)
-- reply F

-- ask Item c1cn2cc(-c3ccc4cn[nH]c4c3)nc(Nc3ccc(N4CCOCC4)cc3)c2n1 : fold change beneath 0.9, strictly?
-- reply T

-- ask Take the compound CCCCCCCC/C=C\CCCCCCCC(=O)Nc1c(C(C)C)cccc1C(C)C and say whether its fold change is less than 0.9.
-- reply T

-- ask Lab note: confirm whether the reported fold change for this compound is below 0.9, equality not counting. compound: CCCCC[C@@](C)(O)/C=C/[C@@H]1[C@@H](C/C=C\CCCC(=O)OC)[C@@H](O)C[C@H]1O
-- reply F

-- ask Threshold test, fold change < 0.9: O=C1c2ccccc2CCC1CNCCc1ccc(O)cc1 (stereo not given)
-- reply T

-- ask Consider the compound O=C(O)CCC/C=C\C[C@@H]1[C@@H](/C=C/C(F)(F)COc2ccccc2)[C@H](O)C[C@@H]1O . Is its fold change strictly less than 0.9?
-- reply F

-- ask Hello, is fold change of the following compound strictly smaller than 0.9? CCS(=O)(=O)c1cccc(-c2cc(C(=O)NC3CCN(C)CC3)c(C)c3[nH]c4ncc(C)cc4c23)c1
-- reply F

-- ask Say whether its fold change is strictly beneath 0.9. Entry: NC(=NCC[C@H](N)C(=O)O)NO
-- reply F

-- ask Hi there! Is fold change for CCCCCCCCCC(=O)N[C@@H](Cc1c[nH]c2ccccc12)C(=O)N[C@@H](CC(N)=O)C(=O)N[C@@H](CC(=O)O)C(=O)N[C@@H]1C(=O)NCC(=O)N[C@@H](CCCN)C(=O)N[C@@H](CC(=O)O)C(=O)N[C@H](C)C(=O)N[C@@H](CC(=O)O)C(=O)NCC(=O)N[C@H](CO)C(=O)NC([C@@H](C)CC(=O)O)C(=O)N[C@@H](CC(=O)c2ccccc2N)C(=O)OC1C (stereo not given in full) below 0.9, do you know?
-- reply T

-- ask Bench note: check whether C[C@H](CCCO)[C@H]1CC[C@H]2[C@@H]3[C@H](O)C[C@H]4CC(=O)CC[C@]4(C)[C@H]3C[C@H](O)[C@]12C shows fold change below 0.9
-- reply T

-- ask API: query returns whether the compound falls strictly under 0.9 in fold change. Query: COC1=C2C[C@@H](C)C[C@H](OC)[C@H](O)[C@@H](C)/C=C(\C)[C@H](OC(N)=O)[C@@H](OC)/C=C\C=C(/C)C(=O)NC(=CC1=O)C2=O
-- reply F

-- ask # check: fold change < 0.9 for Nc1ncnc2c1nc(Br)n2[C@@H]1O[C@@H]2COP(=O)(O)O[C@H]2[C@H]1O
-- reply T

-- ask Is the reported fold change for CCCCCCCCCCCCCC(=O)N[C@H](CO)[C@H](O)c1ccc([N+](=O)[O-])cc1 strictly below 0.9?
-- reply T

-- ask Please let me know if CCC(O)/C=C/C=O (stereo not given) shows fold change below 0.9.
-- reply F

-- ask Answer whether the compound OC1C[C@@H]2[C@@H](CC[C@@H](O)CCc3ccccc3)[C@H](O)C[C@@H]2O1 (stereo not given in full) has fold change strictly less than 0.9
-- reply T
